- Target: human β‐FXIIa (Homo sapiens, UniProt P00748)
- Sequence (P00748 373-615 limits assumed, other chains not shown): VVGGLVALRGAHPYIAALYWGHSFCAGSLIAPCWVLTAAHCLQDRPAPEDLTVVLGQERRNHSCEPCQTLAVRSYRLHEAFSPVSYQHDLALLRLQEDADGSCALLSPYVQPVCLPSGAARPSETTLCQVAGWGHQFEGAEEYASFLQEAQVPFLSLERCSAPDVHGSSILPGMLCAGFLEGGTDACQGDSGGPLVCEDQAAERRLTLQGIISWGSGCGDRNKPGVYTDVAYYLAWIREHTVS
- Format: biochemical
Assay Metric: IC50

Below are worked cases with known answers.
[[record]]
compound = "CC(C)(C)c1nc(N)n(C(=O)Cc2ccccc2I)n1 [32 e]"
observed_measurement = "> 5 µM"

[[record]]
compound = "[H]/N=C(/N)c1ccc(NCc2nc3cc(C(=O)N(CCC(=O)O)c4ccccn4)ccc3n2C)cc1 [Dabigatran, reference compound]"
observed_measurement = "> 5 µM"


Next:
## Input // IC50 lookup, key: CC(C)(C)c1nc(N)n(C(=O)[C@H]2CCCc3ccccc32)n1 [33 e]
## Output > 5 µM

* * *

- Target: thrombin (FIIa) (Homo sapiens, UniProt P00734)
- Protocol Summary: Medium‐throughput screening
- Type: biochemical
- Condition Set: read-out: Inhibition @100 nM [in MTS] FIIa
Assay Metric: inhibition at 0.1 µM (%)

[[record]]
compound = "Nc1nc(-c2ccccc2C(=O)N2CCCCC2)nn1C(=O)[C@H]1CCCc2ccccc21 [33 j]"
observed_measurement = 1

[[record]]
compound = "Nc1nc(-c2ccccn2)nn1C(=O)Cc1ccccc1I [32 a]"
observed_measurement = 2


(I) Cc1nc2ccccc2nc1-c1nc(N)n(C(=O)[C@H]2CCCc3ccccc32)n1 [33 h]
(II) Cc1cccc(-c2nc(N)n(C(=O)[C@H]3CCCc4ccccc43)n2)n1 [33 b]
## Input Between the entries labeled I and II , whose measured inhibition at 0.1 µM is lower? Use the label to indicate which entry you chose.
## Output I

* * *

- Target: human β‐FXIIa (Homo sapiens)
- Format: biochemical
pIC50: −log10 of the molar value.
Assay Metric: pIC50

## Input // pIC50 lookup, key: O=C(NC[C@H]1CN(c2ccc(N3CCOCC3=O)cc2)C(=O)O1)c1ccc(Cl)s1 [Rivaroxaban, reference compound]
## Output < 5.30

## Input // pIC50 lookup, key: Nc1nc(-c2ccc(F)cc2)nn1C(=O)[C@H]1CCCc2ccccc21 [33 f]
## Output ~5.70

## Input // pIC50 lookup, key: Nc1nc(-c2nccc3ccccc23)nn1C(=O)c1ccc2ccccc2c1 [41 c]
## Output < 5.30

* * *

- Target: thrombin (FIIa) (Homo sapiens, UniProt P00734)
- Protocol Summary: Medium‐throughput screening
- Assay type: biochemical
- Condition Set: read-out: Inhibition @100 nM [in MTS] FIIa
Assay Metric: inhibition at 0.1 µM (%)

[[record]]
compound = "Cc1cccc(-c2nc(N)n(C(=O)Cc3ccccc3I)n2)n1 [32 b]"
assay_metric = "inhibition at 0.1 µM"
observed_measurement = 0


(I) Cc1nc(-c2cccs2)ccc1-c1nc(N)n(C(=O)[C@H]2CCCc3ccccc32)n1 [33 d]
(II) Nc1nc(-c2cnccn2)nn1C(=O)[C@H]1CCCc2ccccc21 [33 c]
## Input Between the entries labeled I and II , whose measured inhibition at 0.1 µM is lower? Use the label to indicate which entry you chose.
## Output I

(P) Nc1nc(-c2ccc(F)cc2)nn1C(=O)[C@H]1CCCc2ccccc21 [33 f]
(Q) Nc1nc(-c2nccc3ccccc23)nn1C(=O)[C@H]1CCCc2ccccc21 [33 i]
(R) [H]/N=C(/N)c1ccc(NCc2nc3cc(C(=O)N(CCC(=O)O)c4ccccn4)ccc3n2C)cc1 [Dabigatran, reference compound]
(S) O=C(NC[C@H]1CN(c2ccc(N3CCOCC3=O)cc2)C(=O)O1)c1ccc(Cl)s1 [Rivaroxaban, reference compound]
## Input Could you please sort these 4 entries by inhibition at 0.1 µM from high to low? Please respond by ranking the labels in the order requested.
## Output R, Q, S, P
(R: 91%, Q: 62%, S: 1%, P: 0%)

(1) Cc1nc(-c2cccs2)ccc1-c1nc(N)n(C(=O)Cc2ccccc2I)n1 [32 d]
(2) Nc1nc(-c2ccccn2)nn1C(=O)[C@H]1CCCc2ccccc21 [33 a]
## Input Between the entries labeled 1 and 2 , whose measured inhibition at 0.1 µM is lower? Use the label to indicate which entry you chose.
## Output 1
